Measured values drawn from paper PMC5540273 for this set.

This listing pairs compounds with measured %Inh.
System: CAMK1
Settings: concentration: 1 μM, replicates: in singlicate; n = 1;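 also: KINOMEscan kinase panel screen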
The reply should contain only the number, in %.

Answered examples (2):
>>> measured("Cc1cnc(N)c(/C=C/c2cncc(C(=O)NCCc3ccc(Cl)cc3Cl)c2)c1.Cl")
12
>>> measured("Cc1ccc(NC(=O)c2ccc(Cl)cc2)cc1-c1ccc(C(=O)Nc2ccncc2)cc1")
4

Sure, the documented %Inh for COC(=O)C(Cc1ccccc1)NC(=O)NC1CCN(c2ccnc(Nc3ccc(F)cc3)n2)C1 (stereo not shown) is 2

Item: COc1cccc(C2=C(Nc3cc(Cl)c(O)c(Cl)c3)C(=O)NC2=O)c1 | %Inh: 4

Entry Fc1ccc(-c2nn3cccc(F)c3c2-c2ccncc2)cc1 ; %Inh = 6

Kindly note the recorded %Inh for CC(C)c1ccc(O)cc1Nc1ccnc2ccc(C(F)(F)F)cc12 , which is 0

// %Inh lookup, compound = O=C1NC(=O)C(c2ccc(Cl)cc2)=C1Nc1ccc(O)cc1 , result: 100

* * *

Entries and their %Inh values follow.
System: JNK3
Construct: gene MAPK10
Settings: concentration: 1 μM, replicates: in singlicate; n = 1
# unit: % | format: bare number

Lab note: CNc1nc(-c2ccc3c(N)n[nH]c3c2)cc(N2C[C@@H](C(=O)Nc3ccccc3)CC[C@H]2C)n1 gave %Inh of 3

%Inh measured on CS(=O)(=O)Cc1ccc(Nc2nccc(-c3c(-c4cccc(NC(=O)C5CCCCC5)c4)nn4ncccc34)n2)cc1 = 36

For record Cn1cncc1C(=O)NC1CCN(c2ccnc(Nc3ccc(F)cc3)n2)C1 (stereo not shown) the listed %Inh is 13

Memo: Nc1cccc(-c2ccc3c(N)n[nH]c3c2)n1 , reported %Inh: 0

* * *

Let's look at some compounds and their measured %Inh.
Test system: IRAK1
Conditions: concentration: 1 μM, replicates: in singlicate; n = 1
Dear colleague, please return just the value in %, with no unit written.

>>> measured("CC(=O)c1c(C)c2cnc(Nc3ccc(N4CCNCC4)cn3)nc2n(C2CCCC2)c1=O")
0
>>> measured("COc1nccc(-c2c(-c3ccc(F)cc3)ncn2CCCN2CCOCC2)n1 [SB-282852]")
3
>>> measured("Fc1ccc(-c2nc3n(c2-c2ccncc2)CCS3)cc1 [GI98581]")
3
>>> measured("CCc1ccc(-c2ccc3c(c2)-c2n[nH]cc2S(=O)(=O)N3C)cc1")
0
>>> measured("COc1ccc(Nc2nccc(-c3ccc(NC(=O)c4cc5cc(F)ccc5[nH]4)cc3)n2)cc1 [GSK1229496]")
10
>>> measured("Cl.Cl.Cl.N#Cc1ccc(CCNc2nccc(-c3cccc(CN4CCNCC4)c3)n2)cc1 [GSK2137462]")
0

For this compound ( COC(=O)c1cccc(NC(=O)NC2CCN(c3ccnc(Nc4ccc(OC)cc4)n3)C2)c1 (stereo not drawn) [GSK1379746] ), measured %Inh is 35

The compound listed as O=c1cc(N2CCOCC2)nc2n(Cc3cccc(Cl)c3Cl)c3ccccc3n12 [GSK2299009] has a reported %Inh of 12

Field %Inh (entry Cc1ccc(NC(=O)c2ccc(Cl)cc2)cc1-c1ccc(C(=O)Nc2ccncc2)cc1 [GSK1398467] ) reads 30

%Inh reading for COc1ccc(CSc2nnc(-c3ccc4nccn4c3)o2)cc1C(F)(F)F : 44

Sure, the documented %Inh for O=C(Nc1n[nH]c2nc(-c3cccs3)c(Br)cc12)C1CC1 [SB-735297] is 0

Please fill in: %Inh reported for O=C(Nc1n[nH]c2nc(-c3cccs3)c(Br)cc12)C1CCCC1 [SB-743341] = 0

Data point: COC(=O)C(Cc1ccccc1)NC(=O)NC1CCN(c2ccnc(Nc3ccc(F)cc3)n2)C1 (stereo not drawn) [GSK1379714] ; %Inh = 33

According to the records, this compound CNc1nc(-c2ccc3c(N)n[nH]c3c2)cc(N2C[C@@H](C(=O)Nc3ccccc3)CC[C@H]2C)n1 [GSK2298859] displays %Inh of 0

Briefly, %Inh measured for COc1ccc(Nc2nccc(NCCNC(=O)Nc3cc(C)ccc3C)n2)cc1 [GSK1379899] : 0

// %Inh lookup, compound = CC(C)c1ccc(O)cc1Nc1ccnc2ccc(C(F)(F)F)cc12 [GW482059] , result: 0

%Inh recorded for this compound, CNC(=O)c1ccc(C)c(-n2c(C)cc(OCc3ccc(F)cc3F)c(Br)c2=O)c1 , is 0

Looking up CNc1nc(-c2ccc3c(N)n[nH]c3c2)cc(N2C[C@@H](C(=O)NC3CCCCC3)OC[C@H]2C)n1 [GSK2375584] , I see its %Inh listed as 21
